- study.target: AChE (Musca domestica)
- experiment.notes: biochemical
- Type: biochemical, fly
- protocol.conditions: test concentration of the compound 10 μM
property: Inhibition rate (%)

[[record]]
compound = "Cn1c2c(c3ccccc31)CC[N+](c1ccc(Cl)cc1)=C2.[Br-] [Compound A7]"
study_target = "AChE (Musca domestica)"
result = "60.1 ± 2.9 d %"

[[record]]
compound = "COc1cccc([N+]2=Cc3c(c4ccccc4n3C)CC2)c1.[Br-] [Compound A18]"
study_target = "AChE (Musca domestica)"
result = "4.7 ± 1.5 rst %"

[[record]]
compound = "Cn1c2ccccc2c2cc[n+](-c3cccc(I)c3)cc21.[Br-] [Compound B12]"
study_target = "AChE (Musca domestica)"
result = "56.4 ± 5.9 no %"

[[record]]
compound = "CCOC(=O)Cn1c2c(c3ccccc31)CC[N+](c1ccccc1)=C2.[Br-] [Compound A45]"
study_target = "AChE (Musca domestica)"
result = "38.8 ± 4.6 j %"

[[record]]
compound = "Cn1c2ccccc2c2cc[n+](-c3cccc(C#N)c3)cc21.[Br-] [Compound B24]"
study_target = "AChE (Musca domestica)"
result = "50.7 ± 2.2 pq %"


====

- study.target: AChE (Musca domestica, UniProt Q7YWJ9)
- Sequence (Q7YWJ9 81-659): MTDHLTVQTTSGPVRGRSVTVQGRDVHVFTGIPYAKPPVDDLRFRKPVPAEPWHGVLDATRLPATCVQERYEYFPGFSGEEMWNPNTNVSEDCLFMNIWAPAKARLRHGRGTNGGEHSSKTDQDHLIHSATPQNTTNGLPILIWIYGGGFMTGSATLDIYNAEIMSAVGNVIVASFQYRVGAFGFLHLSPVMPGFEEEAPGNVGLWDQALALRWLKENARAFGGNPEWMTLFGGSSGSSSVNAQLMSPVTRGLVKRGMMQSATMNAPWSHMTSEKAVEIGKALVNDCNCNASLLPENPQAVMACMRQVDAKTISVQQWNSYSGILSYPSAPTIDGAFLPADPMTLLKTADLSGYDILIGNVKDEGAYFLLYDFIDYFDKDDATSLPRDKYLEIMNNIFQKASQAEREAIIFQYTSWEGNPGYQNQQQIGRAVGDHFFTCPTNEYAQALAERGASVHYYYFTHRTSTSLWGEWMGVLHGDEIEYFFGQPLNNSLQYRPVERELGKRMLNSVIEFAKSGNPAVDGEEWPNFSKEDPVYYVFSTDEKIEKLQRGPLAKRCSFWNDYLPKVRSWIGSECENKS
- experiment.notes: biochemical
- Type: biochemical, fly
// classify: if (SI: selectivity index, ratio IC50 (BuChE)/IC50 (AChE) < 20) MET else NOT MET

[[record]]
input_smiles = "Cn1c2c(c3ccccc31)CC[N+](c1ccccc1)=C2.[Br-]"
assigned_label = "MET"

[[record]]
input_smiles = "COc1ccc2c(c1)c1c(n2C)C=[N+](c2ccccc2)CC1.[Br-]"
assigned_label = "MET"

[[record]]
input_smiles = "Cn1c2c(c3ccccc31)CC[N+](c1ccc(I)cc1)=C2.[Br-]"
assigned_label = "MET"

[[record]]
input_smiles = "Cn1c2c(c3ccc(Cl)cc31)CC[N+](c1ccccc1)=C2.[Br-]"
assigned_label = "MET"

[[record]]
input_smiles = "Cn1c2ccccc2c2cc[n+](-c3ccc(Cl)cc3Cl)cc21.[Br-]"
assigned_label = "NOT MET"

[[record]]
input_smiles = "Cn1c2ccccc2c2cc[n+](-c3ccc(F)cc3)cc21.[Br-]"
assigned_label = "NOT MET"

[[record]]
input_smiles = "Cc1ccccc1-[n+]1ccc2c3ccccc3n(C)c2c1.[Br-]"
assigned_label = "MET"


====

- study.target: AChE (Musca domestica)
- experiment.notes: biochemical
- Format: biochemical, fly
- protocol.conditions: read-out: IC50 ± S.D AChE
pIC50: −log10 of the molar value.
property: pIC50

[[record]]
input_smiles = "Cn1c2c(c3ccccc31)CC[N+](c1cccc(O)c1)=C2.[Br-]"
quantitative_result = 5.21

[[record]]
input_smiles = "Cc1ccccc1-[n+]1ccc2c3ccccc3n(C)c2c1.[Br-]"
quantitative_result = 5.01

[[record]]
input_smiles = "Cn1c2c(c3ccccc31)CC[N+](c1ccc(Cl)cc1)=C2.[Br-]"
quantitative_result = 5.12

[[record]]
input_smiles = "Cn1c2ccccc2c2cc[n+](-c3cccc(I)c3)cc21.[Br-]"
quantitative_result = 4.95

